- TESTED_TARGET: Amyloid-beta precursor protein (Homo sapiens) (UniProt P05067)
- Sequence (P05067 whole entry): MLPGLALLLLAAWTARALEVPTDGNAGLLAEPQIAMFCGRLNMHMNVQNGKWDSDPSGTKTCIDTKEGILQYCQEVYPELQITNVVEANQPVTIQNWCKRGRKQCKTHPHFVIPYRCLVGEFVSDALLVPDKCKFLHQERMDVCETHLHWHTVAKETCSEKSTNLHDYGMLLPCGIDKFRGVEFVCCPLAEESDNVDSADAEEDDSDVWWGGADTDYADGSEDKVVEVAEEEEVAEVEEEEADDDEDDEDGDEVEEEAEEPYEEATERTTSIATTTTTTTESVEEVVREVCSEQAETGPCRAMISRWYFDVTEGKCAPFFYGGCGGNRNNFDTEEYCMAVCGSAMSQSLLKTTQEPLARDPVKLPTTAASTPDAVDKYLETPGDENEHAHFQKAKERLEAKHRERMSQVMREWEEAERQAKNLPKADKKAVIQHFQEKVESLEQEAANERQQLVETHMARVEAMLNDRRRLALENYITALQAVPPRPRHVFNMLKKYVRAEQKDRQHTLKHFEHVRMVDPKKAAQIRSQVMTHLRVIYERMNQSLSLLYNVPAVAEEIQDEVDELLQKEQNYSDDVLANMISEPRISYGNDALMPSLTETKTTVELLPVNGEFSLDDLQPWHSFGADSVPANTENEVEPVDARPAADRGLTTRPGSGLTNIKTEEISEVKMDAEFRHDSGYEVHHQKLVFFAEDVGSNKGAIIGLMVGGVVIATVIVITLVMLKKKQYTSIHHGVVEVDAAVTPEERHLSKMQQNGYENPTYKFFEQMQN
- TEST_DETAILS: Inhibition of self-induced amyloid beta (1 to 40) (unknown origin) fibril aggregation assessed as fluorescence emission at 100 uM measured on day 3 by thioflavin-T based assay
Entries annotated with measured Flu intensity
READOUT_LABEL: Flu intensity

> print(dat)
                                   compound                             tested.target  result
1  Oc1ccc(/C=C/c2cc(O)cc(O)c2)cc1 [RESVERATROL]  Amyloid-beta precursor protein (Homo sapiens) (UniProt P05067)     272
2        Oc1ccc(/C=N/CCn2ccc3ccccc32)c(O)c1  Amyloid-beta precursor protein (Homo sapiens) (UniProt P05067)     273
3       Oc1ccccc1/C=N/CCNc1ccnc2cc(Cl)ccc12  Amyloid-beta precursor protein (Homo sapiens) (UniProt P05067)     344
4  Cl.Oc1ccc(/C=N/CCNCCn2cnc3ccccc32)c(O)c1  Amyloid-beta precursor protein (Homo sapiens) (UniProt P05067)     165
5       O=C(NCCNc1ccnc2cc(Cl)ccc12)c1cnccn1  Amyloid-beta precursor protein (Homo sapiens) (UniProt P05067)     313
6   Cl.Nc1ncnc2c1ncn2CCNCC/N=C/c1ccc(O)cc1O  Amyloid-beta precursor protein (Homo sapiens) (UniProt P05067)     247
7        Oc1ccc(/C=N/CCn2ccc3cccnc32)c(O)c1  Amyloid-beta precursor protein (Homo sapiens) (UniProt P05067)     310

====

- TESTED_TARGET: Beta-secretase 1 (Homo sapiens, UniProt P56817)
- Sequence (P56817 whole entry): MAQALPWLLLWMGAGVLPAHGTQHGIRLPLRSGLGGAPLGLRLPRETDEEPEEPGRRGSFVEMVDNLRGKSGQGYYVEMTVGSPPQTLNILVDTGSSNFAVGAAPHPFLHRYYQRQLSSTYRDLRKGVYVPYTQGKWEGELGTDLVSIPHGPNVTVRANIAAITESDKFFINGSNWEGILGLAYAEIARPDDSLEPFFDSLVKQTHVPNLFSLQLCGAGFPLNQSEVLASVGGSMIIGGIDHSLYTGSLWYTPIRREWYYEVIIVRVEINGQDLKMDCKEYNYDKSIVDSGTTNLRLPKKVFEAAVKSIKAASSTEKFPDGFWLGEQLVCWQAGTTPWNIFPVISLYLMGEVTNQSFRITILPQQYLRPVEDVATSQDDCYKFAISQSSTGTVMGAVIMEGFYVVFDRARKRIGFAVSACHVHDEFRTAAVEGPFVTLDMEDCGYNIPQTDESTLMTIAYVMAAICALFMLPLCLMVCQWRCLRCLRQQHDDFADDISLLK
- TEST_DETAILS: Inhibition of BACE 1 (unknown origin) at 50 uM using Rh-EVNLDAEFK-Quencher as substrate after 1 hr by FRET assay relative to control
In this section we review reported inhibition values for a set of molecules.
READOUT_LABEL: inhibition (%)

> print(dat)
                      smiles.representation  readout.label  output.unit  result
1       O=C(NCCNc1ccnc2cc(Cl)ccc12)c1cnccn1     inhibition            %      91
2   Cl.Nc1ncnc2c1ncn2CCNCC/N=C/c1ccc(O)cc1O     inhibition            %    59.2
3        Oc1ccc(/C=N/CCn2ccc3cccnc32)c(O)c1     inhibition            %    31.6
4  C[C@@]1(c2cc(-c3cncnc3)c(F)cc2F)CCSC(N)=N1     inhibition            %     100
5  Cl.Oc1ccc(/C=N/CCNCCn2cnc3ccccc32)c(O)c1     inhibition            %    62.5
6       Oc1ccccc1/C=N/CCNc1ccnc2cc(Cl)ccc12     inhibition            %    29.6
7        Oc1ccc(/C=N/CCn2ccc3ccccc32)c(O)c1     inhibition            %     100

====

- TEST_DETAILS: Inhibition of Cu2+ induced amyloid beta (1 to 40) fibril aggregation assessed as aggregation level at 100 uM measured on day 10 by UV-visible turbidity method (reference value: 100 +/- 8.72%)
- Design: scale not given: the % may be the effect or the level left
The threshold is inclusive: Activity of exactly 40% counts as YES; values below receive NO.

> print(dat)
                                   compound  class.assignment
1  Cl.Oc1ccc(/C=N/CCNCCn2cnc3ccccc32)c(O)c1                NO
2   Cl.Nc1ncnc2c1ncn2CCNCC/N=C/c1ccc(O)cc1O                NO
3        Oc1ccc(/C=N/CCn2ccc3cccnc32)c(O)c1               YES
4  Oc1ccc(/C=C/c2cc(O)cc(O)c2)cc1 [RESVERATROL]                NO
5       O=C(NCCNc1ccnc2cc(Cl)ccc12)c1cnccn1               YES
6        Oc1ccc(/C=N/CCn2ccc3ccccc32)c(O)c1                NO

These data points were gathered from ChEMBL document CHEMBL4152355.
